Recorded pIC50 for the following compounds
- Tested on: MDA-MB-231
- Protocol summary: Cytotoxicity against human MDA-MB-231 cells assessed as growth inhibition after 72 hrs by MTT assay
- Assay type: functional, cell-based
- Reported conditions: MDA-MB-231, 72 h
Field pIC50 (float): negative decimal logarithm of the concentration in molar.

[
  {
    "Compound": "CC1=NN(c2ccccc2)C(=O)[C@@]12C(=O)C=CC[C@H]2c1ccc(C)cc1",
    "Readout type": "pIC50",
    "Assay value": 5.08
  },
  {
    "Compound": "CC1=NN(c2ccccc2)C(=O)[C@@]12C(=O)C=CC[C@@H]2c1ccc(C)cc1 (racemic)",
    "Readout type": "pIC50",
    "Assay value": 5.13
  },
  {
    "Compound": "CC1=NN(c2ccccc2)C(=O)[C@]12C(=O)C=CC[C@@H]2c1ccc(C)cc1 (racemic)",
    "Readout type": "pIC50",
    "Assay value": 5.20
  },
  {
    "Compound": "CC1=NN(c2ccc(C)cc2)C(=O)[C@]12C(=O)C=CC[C@H]2c1ccc(C)cc1",
    "Readout type": "pIC50",
    "Assay value": 5.08
  }
]

For the compound CC1=NN(c2ccccc2)C(=O)[C@]12C(=O)C=CC[C@@H]2c1ccccc1 (racemic) , give its measured pIC50 value.
5.04

For the compound CC1=NN(c2ccc(C)cc2)C(=O)[C@@]12C(=O)C=CC[C@@H]2c1ccc(C)cc1 (racemic) , give its measured pIC50 value.
5.09

For the compound CC1=NN(c2ccccc2)C(=O)[C@]12C(=O)C=CC[C@H]2c1ccc(C)cc1 , give its measured pIC50 value.
5.24

For the compound COc1cccc2c1C(=O)c1c(O)c3c(c(O)c1C2=O)C[C@@](O)(C(=O)CO)C[C@@H]3O[C@H]1C[C@H](N)[C@H](O)[C@H](C)O1 [DOXORUBICIN] , give its measured pIC50 value.
6.35

For the compound CC1=NN(c2ccccc2)C(=O)[C@@]12C(=O)C=CC[C@@H]2c1ccccc1[N+](=O)[O-] (racemic) , give its measured pIC50 value.
4.17

For the compound CC1=NN(c2ccccc2)C(=O)[C@]12C(=O)C=CC[C@@H]2c1cccc(C)c1 (racemic) , give its measured pIC50 value.
5.10

For the compound CC1=NN(c2ccccc2)C(=O)[C@]12C(=O)C=CC[C@H]2c1ccccc1[N+](=O)[O-] , give its measured pIC50 value.
4.49

For the compound COc1ccccc1[C@H]1CC=CC(=O)[C@@]12C(=O)N(c1ccccc1)N=C2C (racemic) , give its measured pIC50 value.
4.81

For the compound CC1=NN(c2ccc(C)cc2)C(=O)[C@@]12C(=O)C=CC[C@H]2c1ccc(C)cc1 , give its measured pIC50 value.
5.04

For the compound CC1=NN(c2ccccc2)C(=O)[C@]12C(=O)C=CC[C@H]2c1ccccc1 , give its measured pIC50 value.
5.24

For the compound COc1ccccc1[C@@H]1CC=CC(=O)[C@]12C(=O)N(c1ccccc1)N=C2C , give its measured pIC50 value.
5.29

For the compound CC1=NN(c2ccccc2)C(=O)[C@@]12C(=O)C=CC[C@H]2c1cccc(C)c1 , give its measured pIC50 value.
5.18

For the compound CC1=NN(c2ccc(C)cc2)C(=O)[C@]12C(=O)C=CC[C@@H]2c1ccc(C)cc1 (racemic) , give its measured pIC50 value.
4.24

----------
Recorded pIC50 for the following compounds
- System: MDA-MB-231
- Protocol summary: Cytotoxicity against human MDA-MB-231 cells assessed as growth inhibition after 72 hrs by MTT assay
- Format: functional, cell-based
- Reported conditions: MDA-MB-231, 72 h
Field pIC50 (float): negative decimal logarithm of the concentration in molar.

Example compounds with recorded pIC50:
[
  {
    "Compound": "CC1=NN(c2ccccc2)C(=O)[C@@]12C(=O)C=CC[C@@H]2c1ccccc1 (racemic)",
    "pIC50": 5.03
  },
  {
    "Compound": "CC1=NN(c2ccccc2)C(=O)[C@]12C(=O)C=CC[C@H]2c1cccc(C)c1",
    "pIC50": 4.99
  },
  {
    "Compound": "CC1=NN(c2ccccc2)C(=O)[C@@]12C(=O)C=CC[C@H]2c1ccccc1",
    "pIC50": 5.26
  }
]

// switching to the query compound
Please report pIC50 with MDA-MB-231 for item CC1=NN(c2ccccc2)C(=O)[C@@]12C(=O)C=CC[C@@H]2c1cccc(C)c1 (racemic) .
5.17
